Form field: pIC50 (one value per entry).
experimental system: TAF1-BD2 (Homo sapiens (Human))
Sequence (P21675 1525-1656 limits assumed): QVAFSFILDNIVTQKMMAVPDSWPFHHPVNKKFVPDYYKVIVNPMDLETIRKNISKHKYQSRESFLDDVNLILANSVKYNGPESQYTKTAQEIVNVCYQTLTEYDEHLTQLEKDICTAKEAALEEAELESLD
assay method text: TAF1-BD2 TR-FRET Binding Assay
condition: Assay: TAF-1
pIC50: −log10 of the molar value.
measured parameter: pIC50

> print(dat)
                                   compound              experimental.system  value.reported
1  Cc1cc2c(-c3cccc(C(=O)N(C)C)c3)cn(CCC3CC3)c(=O)c2[nH]1 [Example 85]  TAF1-BD2 (Homo sapiens (Human))            6.32
2  C/C=C/Cn1cc(-c2cccc(C(=O)NC)c2)c2cc[nH]c2c1=O [Example 25]  TAF1-BD2 (Homo sapiens (Human))            6.19
3  C/C=C/Cn1cc(-c2cc(C(=O)N3CCC3)ccc2OC)c2cc[nH]c2c1=O [Example 71]  TAF1-BD2 (Homo sapiens (Human))            5.74
4  C/C=C/Cn1cc(-c2ccc(CO)cc2)c2cc[nH]c2c1=O [Example 29]  TAF1-BD2 (Homo sapiens (Human))            5.35
5  CC(C)=CCn1cc(-c2cccc(C(=O)N(C)C)c2)c2cc[nH]c2c1=O [Example 3]  TAF1-BD2 (Homo sapiens (Human))            5.28
6  C/C=C/Cn1cc(-c2ccc(C(=O)N(C)C)c(Cl)c2)c2cc[nH]c2c1=O [Example 43]  TAF1-BD2 (Homo sapiens (Human))            5.70
7  CN(C)C(=O)c1cccc(-c2cn(CC3CC3)c(=O)c3[nH]ccc23)c1 [Example 17]  TAF1-BD2 (Homo sapiens (Human))            5.25

* * *

experimental system: BRD4(BD1) (Homo sapiens (Human), UniProt O60885)
assay method text: BRD4 AlphaLisa Binding Assay
Hi! Could you tag entries with IC50 below 2000 nM as true (1), and those at or above as false (0)? Much appreciated.

> print(dat)
                                   molecule      class
1  C/C=C/Cn1cc(-c2cc(C(=O)NC3CC3)ccc2OC)c2cc[nH]c2c1=O   true (1)
2  C/C=C/Cn1cc(-c2ccc3c(c2)NC(C)CC(=O)N3)c2cc[nH]c2c1=O (centres unmarked)   true (1)
3  CN(C)C(=O)c1cccc(-c2cn(CCC3CC3)c(=O)c3[nH]ccc23)c1  false (0)
4  C/C=C/Cn1cc(-c2cc(C(N)=O)ccc2F)c2cc[nH]c2c1=O   true (1)
5  CCCCn1cc(-c2cccc(C(=O)N(C)C)c2)c2cc(C)[nH]c2c1=O  false (0)
6  C/C=C/Cn1cc(-c2cc(C(=O)NC3CCC3)ccc2OC)c2cc[nH]c2c1=O   true (1)
7  C/C=C/Cn1cc(-c2cccc(C(=O)NC3CC3)c2)c2cc[nH]c2c1=O   true (1)
8  CN(C)C(=O)c1cccc(-c2cn(CC3CCC3)c(=O)c3[nH]ccc23)c1  false (0)

* * *

pIC50: −log10 of the molar value.
Values of pIC50 reported for BRD9 (Homo sapiens (Human), UniProt Q9H8M2) appear below.
measured parameter: pIC50

> print(dat)
                               sample.smiles                       experimental.system  value.reported
 1  C/C=C/Cn1cc(-c2ccc(C(=O)N3CCCC3)cc2)c2cc(C)[nH]c2c1=O  BRD9 (Homo sapiens (Human), UniProt Q9H8M2)            7.89
 2  C/C=C/Cn1cc(-c2cnc(C(=O)N3CCOCC3)nc2)c2cc(C)[nH]c2c1=O  BRD9 (Homo sapiens (Human), UniProt Q9H8M2)            7.08
 3  C/C=C/Cn1cc(-c2ccc(C(=O)N3CC(n4ccc(N)n4)C3)c(Cl)c2)c2cc(C)[nH]c2c1=O  BRD9 (Homo sapiens (Human), UniProt Q9H8M2)            8.30
 4  C/C=C/Cn1cc(-c2ncc(C(=O)N3CCOCC3)cc2OC)c2cc(C)[nH]c2c1=O  BRD9 (Homo sapiens (Human), UniProt Q9H8M2)            7.34
 5  CCCCn1cc(-c2ccc(C(C)(C)O)cc2OC)c2cc[nH]c2c1=O  BRD9 (Homo sapiens (Human), UniProt Q9H8M2)            7.14
 6  C/C=C/Cn1cc(-c2ccc(C(=O)N3CCN(C)CC3)c(Cl)c2)c2cc(C)[nH]c2c1=O  BRD9 (Homo sapiens (Human), UniProt Q9H8M2)            8.05
 7  C/C=C/Cn1cc(-c2cc(C(=O)N(C)C)ccc2OC)c2cc[nH]c2c1=O  BRD9 (Homo sapiens (Human), UniProt Q9H8M2)            7.25
 8  C/C=C/Cn1cc(-c2cc(C(=O)NCc3cncnc3)ccc2OC)c2cc(C)[nH]c2c1=O  BRD9 (Homo sapiens (Human), UniProt Q9H8M2)            8.52
 9  C/C=C/Cn1cc(-c2cc(C(=O)NCCN(C)C)ccc2OC)c2cc[nH]c2c1=O  BRD9 (Homo sapiens (Human), UniProt Q9H8M2)            7.64
10  C/C=C/Cn1cc(-c2ccc(C(C)(C)O)cc2OC)c2cc(C)[nH]c2c1=O  BRD9 (Homo sapiens (Human), UniProt Q9H8M2)            7.00
11  C/C=C/Cn1cc(-c2cc(C(=O)N(C)C)ccc2F)c2cc[nH]c2c1=O  BRD9 (Homo sapiens (Human), UniProt Q9H8M2)            6.89
12  C/C=C/Cn1cc(-c2cc(C(=O)N3CCCC3)ccc2OC)c2cc[nH]c2c1=O  BRD9 (Homo sapiens (Human), UniProt Q9H8M2)            7.41
13  C/C=C/Cn1cc(-c2cccc(C(N)=O)c2)c2cc[nH]c2c1=O  BRD9 (Homo sapiens (Human), UniProt Q9H8M2)            6.29
14  CCCCn1cc(-c2ccc(C(C)(C)O)cc2)c2cc[nH]c2c1=O  BRD9 (Homo sapiens (Human), UniProt Q9H8M2)            7.37
15  C/C=C/Cn1cc(-c2ccc(C(=O)N3CC(n4ccc(N)n4)C3)cc2)c2cc(C)[nH]c2c1=O  BRD9 (Homo sapiens (Human), UniProt Q9H8M2)            8.05
16  C/C=C/Cn1cc(-c2cc(Cl)c(C(=O)N3CCOCC3)cn2)c2cc(C)[nH]c2c1=O  BRD9 (Homo sapiens (Human), UniProt Q9H8M2)            7.66
17  C/C=C/Cn1cc(-c2ccc(C(=O)N3CCOCC3)c(Cl)c2)c2cc[nH]c2c1=O  BRD9 (Homo sapiens (Human), UniProt Q9H8M2)            7.89

* * *

# maps each entry to its pIC50
experimental system: BRD4(BD1) (Homo sapiens (Human))
assay method text: BRD4 AlphaLisa Binding Assay
pIC50: −log10 of the molar value.
measured parameter: pIC50

> print(dat)
                                    compound  value.reported
 1  CC/C=C/Cn1cc(-c2cccc(C(=O)N(C)C)c2)c2cc[nH]c2c1=O            5.57
 2  CN(C)C(=O)c1cccc(-c2cn(CC3CCCC3)c(=O)c3[nH]ccc23)c1            5.19
 3  C/C=C/Cn1cc(-c2cc(C(=O)NCC(F)F)ccc2OC)c2cc[nH]c2c1=O            6.49
 4  CC(C)Cn1cc(-c2cccc(C(=O)N(C)C)c2)c2cc[nH]c2c1=O            5.10
 5  C/C=C/Cn1cc(-c2cc(C(=O)NC3CCOC3)ccc2OC)c2cc[nH]c2c1=O (centres unmarked)            5.80
 6  CN(C)C(=O)c1cccc(-c2cn(CCC3CCCCC3)c(=O)c3[nH]ccc23)c1            4.92
 7  CCCCCn1cc(-c2cccc(C(=O)N(C)C)c2)c2cc[nH]c2c1=O            5.35
 8  C/C=C/Cn1cc(-c2ccc(C(=O)NC3CC3)cc2)c2cc[nH]c2c1=O            6.29
 9  C/C=C/Cn1cc(-c2ccc(C(N)=O)c(F)c2)c2cc[nH]c2c1=O            6.05
10  CN(C)C(=O)c1cccc(-c2cn(CC3CCCCC3)c(=O)c3[nH]ccc23)c1            4.82
11  C/C=C/Cn1cc(-c2ccc(C(C)C)cc2)c2cc[nH]c2c1=O            5.80
12  C/C=C/Cn1cc(-c2cc(C(=O)NCC3CC3)ccc2OC)c2cc[nH]c2c1=O            5.92
13  C/C=C/Cn1cc(-c2cccc(C(N)=O)c2F)c2cc[nH]c2c1=O            5.92
14  C/C=C/Cn1cc(-c2ccc(C(C)(C)C)cc2)c2cc[nH]c2c1=O            5.68
